From: PubChem BioAssay (NCI)

growth reference
- Test system: RXF 393 renal
- Assay notes: NCI-60 one-dose screen, 48 h (100 = growth as untreated, 0 = no growth, -100 = all killed)
- Measurement setup: 10 µM
The panel holds about 83,000 compounds, 20% with a hit somewhere; the sample as a whole holds those more often. Active and inactive are the calls of the source. Rule for the calls: active = growth percent below 10; inactive = the rest.

Some entries whose results are on file:
Compound	growth
CN1CCN(c2ccc(C(=O)/C=C/c3cc(Br)ccc3F)cc2)CC1	38.8% (inactive)
Cc1ccc(CSc2nc(-c3ccc(F)cc3)c(C#N)c(=O)[nH]2)cc1	95.1% (inactive)
O=C1Nc2ccc(F)cc2/C1=C/c1cccc(OCc2ccccc2)c1	-15.9% (active)
C=C(C)[C@@H]1CC[C@]2(COP(=O)(OCC)OCC)CC[C@]3(C)[C@H](CC[C@@H]4[C@@](C)(CCCN)[C@H](C(=C)C)CC[C@]43C)[C@@H]12	6.32% (active)
CC1(C)CC[C@]2(C(=O)Nc3ccccc3)CC[C@]3(C)C(=CC[C@@H]4[C@@]5(C)CC[C@H](N)C(C)(C)[C@@H]5CC[C@]43C)[C@H]2C1	59.8% (inactive)

Please find the next compound below.
Inquiry: I'm curious: which growth was measured for CCCCCCCCCCCCCCCCCCCC(=O)NCCc1c[nH]c2ccc(OC(=O)CCCC(=O)OCCOOCCOOCCOOCCOOCCOOCCOOCCOOCCOOCCOOCCOOCCOOCCOC)cc12 tested on RXF 393 renal?
Reply text: 91.3% (inactive)

====

- System: SW-620 colon
- Assay notes: NCI-60 one-dose screen, 48 h
- Measurement setup: 10 µM
Compounds without any hit were thinned out: in the full panel of roughly 83,000, 20% have a hit. The source made the active and inactive calls. Rule for the calls: active = growth percent below 10; inactive = the rest.
// one of yes for active, no for inactive, no free text

Compound	Tgt	Group label
CN(C(=O)c1ccc(C(F)(F)F)cc1C(F)(F)F)c1sc2c(c1C#N)CCC(=O)C2	SW-620 colon	no
N#Cc1c(-c2ccc(F)cc2)nc(SCc2ccc([N+](=O)[O-])cc2)nc1N1CCOCC1	SW-620 colon	no
Cc1noc2c(Cc3ccc([N+](=O)[O-])cc3)nn(CC(=O)N/N=C/c3ccc(Br)cc3)c(=O)c12	SW-620 colon	no
Cc1cccc(-c2nc(Nc3ccccc3C(=O)O)c3ccccc3n2)c1	SW-620 colon	no
CC(=O)NNc1ccc2nnc(-c3ccc(Br)cc3)n2n1	SW-620 colon	no

Inquiry: # lookup: test call for COc1ccccc1C(=O)NNC(=O)CSc1nc2c(c(=O)[nH]1)CCCC2
Reply text: no

Inquiry: Tell me the recorded outcome of this test for OCc1[nH]nc2cc(Nc3ncc4ccc(Br)c(OC5CCC(O)CC5)c4n3)ccc12 (stereo not given) .
Reply text: yes

Inquiry: Assay result, entry CCCn1c(=O)c2[nH]c(-c3ccc(OCc4nc5ccc(F)cc5[nH]4)cc3)nc2n(CCC)c1=O — outcome?
Reply text: no

Inquiry: Which outcome was entered for the compound O=C(CSc1nnc(-c2c[nH]c3ccccc23)n1-c1ccccc1)c1ccccc1 in this test?
Reply text: no

Inquiry: Hi team, can someone confirm the assay call for O=C(Cn1cc(CSc2nnc3oc4ccccc4n23)nn1)Nc1ccc(Br)cc1 ?
Reply text: no

====

- Tested on: OVCAR-4 ovarian
- Assay notes: NCI-60 one-dose screen, 48 h (100 = growth as untreated, 0 = no growth, -100 = all killed)
- Measurement setup: 10 µM
- Protocol: Growth inhibition of the OVCAR-4 human tumor cell line is measured as a screen for anti-cancer activity. Cells are grown in 96 well plates and exposed to the test compound for 48 hours. Compounds are tested at a single concentration, which is 10^-5 M for most compounds. The reported endpoint is percent growth (GI% or GIPRCNT), where numbers from 0 - 100% represent growth inhibition, and numbers from -100% - 0 represent cell death. For example, a value of 40 represents 60% growth inhibition. […]
Compounds without any hit were thinned out: in the full panel of roughly 83,000, 20% have a hit.
Criterion: growth strictly under 30%. Met: Satisfied. Not met: Not satisfied.

Molecule	Tgt	Group label
O=c1oc2ccccc2cc1-c1csc(N=Nc2c(O)[nH]c3ccc(Br)cc23)n1	OVCAR-4 ovarian	Not satisfied
C=C1CCC2C3(C)COC(c4ccccc4F)OC3CCC2(C)C1C/C=C1/C(=O)OCC1O (stereo not given)	OVCAR-4 ovarian	Satisfied
COc1ccc(/C=N/N=C(\C)c2ccc3c(c2)Nc2ccccc2S3)cc1O	OVCAR-4 ovarian	Not satisfied

Then this molecule:
Inquiry: Problem: For the molecule O=C(Nc1ccc(OCc2ccccc2)cc1)Nc1ccc(Cl)c(C(F)(F)F)c1 , is growth under 30%?
Reply text: Satisfied

====

- Test system: PC-3 prostate
- Assay notes: NCI-60 one-dose screen, 48 h
- Measurement setup: 10 µM
Compounds without any hit were thinned out: in the full panel of roughly 83,000, 20% have a hit. Activity calls are given as the source filed them. The calls were made as follows: active = growth percent below 10; inactive = the rest.
// one of active, inactive, no free text

Compound	Group label
Cc1ccc(-c2nc(Nc3ccccc3C(=O)O)c3ccccc3n2)cc1	inactive
Brc1ccc(/C=N/Nc2ncnc3sc4c(c23)CCN(Cc2ccccc2)C4)cc1	inactive
O=C(c1ccc(Cl)cc1)C1[C@H](c2ccc(Br)cc2)[C@@H](c2ccccc2)NC12C(=O)Nc1ccccc12 (stereo not given in full)	active
CN1CCN(Cc2ccc(C(=O)Nc3cccc(Nc4ccc5cc(O)ccc5n4)c3)cc2C(F)(F)F)CC1	active

Inquiry: Recorded test call requested for Nc1nc2c(F)c(F)c(F)c(F)c2s1
Reply text: inactive

====

- Test system: NCI/ADR-RES ovarian
- Assay notes: NCI-60 one-dose screen, 48 h (100 = growth as untreated, 0 = no growth, -100 = all killed)
- Measurement setup: 10 µM
About 83,000 compounds went through this panel and 20% of them were active in at least one assay; those are over-represented in the sample as a whole. Activity calls are given as the source filed them. How the source made its calls: active means growth percent below 10; inactive means the rest.
Property name: growth

Some compounds with known growth results, for comparison:
Compound	Tgt	growth
CCOP(=O)(OCC)O[C@H]1CCC(=O)[C@@H]2[C@H]1[C@H]1C[C@@H]3[C@@]4(C)CCCC(C)(C(=O)OC)[C@@H]4CC[C@@]23C=C1C(C)C (some centres undefined)	NCI/ADR-RES ovarian	44.3% (inactive)
CS(=O)(=O)Nc1ccc(-c2ccc3c(c2)ncn3-c2ccc(NC(=O)Nc3ccc(Cl)c(C(F)(F)F)c3)cc2)cc1	NCI/ADR-RES ovarian	-1.05% (active)
CC[C@@]1(O)C(=O)OCc2c1cc1n(c2=O)Cc2c-1nc1cc(F)c(C)c3c1c2[C@@H](N)CC3	NCI/ADR-RES ovarian	-12.2% (active)
CCCCSc1nc(Nc2ccc(/C(C)=N/NC(N)=S)cc2)c(C#N)c(-c2ccc(OC)cc2)n1	NCI/ADR-RES ovarian	25.8% (inactive)
CCOC(=O)C1=C(N)N(c2ccccc2)C2=C(C(=O)CC(C)(C)C2)C1c1ccccc1OC (centres undefined)	NCI/ADR-RES ovarian	96.6% (inactive)

Inquiry: Query the reported growth for NCI/ADR-RES ovarian; item: COc1ccc(C(=O)/C=C/c2ccc(Cl)c(C(F)(F)F)c2)cc1S(N)(=O)=O
Reply text: -44% (active)

Inquiry: // map COC[C@@H](CC(C)C)N=C1NC(=O)/C(=C/c2ccc3ncoc3c2)N1 to recorded growth (system: NCI/ADR-RES ovarian)
Reply text: 20.3% (inactive)

Inquiry: Please tell me: growth of O=C(Nc1nc2ccc([N+](=O)[O-])cc2s1)Nc1cc(Cl)ccc1I , system NCI/ADR-RES ovarian?
Reply text: -34.5% (active)

Inquiry: # returns recorded growth (system: NCI/ADR-RES ovarian) for COc1ccc(-c2ccc(SCC(=O)Nc3ccc(C#N)cc3)nn2)cc1
Reply text: 83.7% (inactive)

====

- Tested on: CAKI-1 renal
- Assay notes: NCI-60 one-dose screen, 48 h (100 = growth as untreated, 0 = no growth, -100 = all killed)
- Measurement setup: 10 µM
The panel holds about 83,000 compounds, 20% with a hit somewhere; the sample as a whole holds those more often.
Lab note: compare growth against 20%. Equal or greater, write rule met. Smaller, write rule not met.

Compound	Group label
CCN(CC)CCOc1ccc(C(=C(C)c2ccccc2)c2ccc(OCCN(CC)CC)cc2)cc1	rule not met
COc1ccc2[nH]c(=O)c(CSc3cccc(N)c3)cc2c1	rule met
COc1ccc2nc(Nc3cccc(NC(=O)c4ccc(CN5CCN(C)CC5)c(C(F)(F)F)c4)c3)ccc2c1	rule not met
CC1(c2ccccc2)NC(=O)N(CC(=O)Nc2ccc(C(=O)/C=C/C=C/c3ccccc3)cc2)C1=O (centres undefined)	rule met

Inquiry: Dear colleague, could you confirm whether Cc1noc2c(Cc3ccc([N+](=O)[O-])cc3)nn(CC(=O)N/N=C/c3ccc(Br)cc3)c(=O)c12 has growth at or above 20%?
Reply text: rule met

Inquiry: Confirm if growth reported for the compound CSc1nc(-c2cccc(C)c2)c2cc(-c3ccccc3)n(C)c2n1 is 20% or above.
Reply text: rule met

Inquiry: Tell me whether growth is at least 20% here: CCOC(=O)C(Cc1ccccc1)N1C(=O)/C(=C/N2N=C(c3ccc(OC)cc3)CC2c2ccc3ccccc3c2)SC1=S (centres undefined)
Reply text: rule met

Inquiry: Answer whether growth of CC(C)NC(=O)c1cc(-c2ccc(NC(=O)Nc3ccc(N4CCN(C)CC4)c(C(F)(F)F)c3)cc2)nc2cccnc12 is greater than or equal to 20%.
Reply text: rule not met

Inquiry: Tell me whether growth is at least 20% here: CN(C)c1ccc(/C=C/C(=O)c2ccc(NC(=O)CN3C(=O)NC(C)(c4ccccc4)C3=O)cc2)cc1 (centres undefined)
Reply text: rule met
